# Assayed system: HLA-B*07:02 (human)
# Assay details: UV peptide exchange; HLA class I ELISA
# Run conditions: remark: other sources report otherwise
Reported property: exchange rate with Pos (%)
Give the value in % but do not write % after it.

RAKCKFSIL (here or on the partner: biotinylated heavy chain) [P56 9-mer … (SPOP F102C)] : 82.5
YLRRQKRLK (here or on the partner: biotinylated heavy chain) [P60 9-mer … (FOXA1.p.F266L)] : 6.1
RAVRRMNTF (here or on the partner: biotinylated heavy chain) [P17 9-mer … (MSMB-NOCA4 fusion)] : 38.7
FLFLLLPLS (here or on the partner: biotinylated heavy chain) [P87 9-mer … (AR-Intron)] : 5

Next binder, please.
INPUT: Field request: exchange rate with Pos | item: CPMSRLRLA (here or on the partner: biotinylated heavy chain) [P46 9-mer … (TP53 R213D frameshift)]
OUTPUT: 64.8
